The values you see were collected from the supplement of paper PMC9112550.

System: Escherichia coli TOP10;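 note: peptides expressed intracellularly from a pBAD plasmid library in pooled LB shake-flask culture, induced with 0.3% L-arabinose, DNA abundance read by NGS, three biological replicates, DESeq2 with apeglm shrinkage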
protocolDescription: shrunken log2 fold change of peptide-encoding DNA abundance (4.5 h post-induction vs induction); higher = less antimicrobial activity (less host growth inhibition)
details: time post-induction: 4.5 h; library: site-saturation at positions 5, 18, 19, 20
Please respond with reported shrunken log2 fold change for every item in the list.
Give bare numbers.

Examples from the recorded data:
*Q* What shrunken log2 fold change appears in the records for this sequence with Escherichia coli TOP10? "RRIRYRPPRLPRPRPRPRRFPRP"
*A* 0.256

*Q* Also check "RRIRLRPPRLPRPRPRPGYWPRP"
*A* -0.0133

*Q* Let us now turn to "RRIRYRPPRLPRPRPRPGHDPRP"
*A* -0.0736

*Q* Would you kindly repeat that for "RRIRWRPPRLPRPRPRPEAAPRP" ?
*A* 1.76

*Q* Try this sequence next: "RRIRYRPPRLPRPRPRPLLPPRP"
*A* -0.266

*Q* Then what about the sequence "RRIRWRPPRLPRPRPRPLSDPRP" ?
*A* 0.254

*Q* One more sequence: "RRIRRRPPRLPRPRPRPSENPRP"
*A* -0.0437

*Q* Now this one: "RRIRQRPPRLPRPRPRPMEVPRP"
*A* -0.0855

*Q* Next entry: "RRIRDRPPRLPRPRPRPMEPPRP"
*A* 0.127

*Q* Moving on to the next sequence: "RRIRQRPPRLPRPRPRPGTEPRP"
*A* 0.119

Parameter requested: shrunken log2 fold change. Apply to each item below.
1. RRIRCRPPRLPRPRPRPQPLPRP
2. RRIRHRPPRLPRPRPRPNLPPRP
3. RRIRWRPPRLPRPRPRPQNDPRP

*A*
1. 0.19
2. -0.57
3. -0.0722

For each listed entry, give its shrunken log2 fold change.
1. RRIRFRPPRLPRPRPRPLHRPRP
2. RRIRCRPPRLPRPRPRPGNWPRP
3. RRIRVRPPRLPRPRPRPVDNPRP
4. RRIRQRPPRLPRPRPRPTNEPRP
5. RRIRKRPPRLPRPRPRPKAQPRP
6. RRIRWRPPRLPRPRPRPPIKPRP

*A*
1. 0.136
2. 0.0422
3. -0.663
4. -0.395
5. 0.313
6. -0.0713

Quick request: shrunken log2 fold change for each listed item, please.
1. RRIRNRPPRLPRPRPRPDELPRP
2. RRIRMRPPRLPRPRPRPTGPPRP

*A*
-0.134
0.388

Give one value of shrunken log2 fold change per listed sequence.
1. RRIRHRPPRLPRPRPRPYSGPRP
2. RRIRTRPPRLPRPRPRPRFAPRP
3. RRIRKRPPRLPRPRPRPHDFPRP
4. RRIRIRPPRLPRPRPRPYMVPRP
5. RRIRSRPPRLPRPRPRPDIRPRP
6. RRIRQRPPRLPRPRPRPANQPRP
7. RRIRMRPPRLPRPRPRPPHLPRP
8. RRIRIRPPRLPRPRPRPGSMPRP

*A*
[-0.151, 0.37, -0.0488, -0.377, -0.0108, -0.091, 0.389, -0.501]

Give shrunken log2 fold change for each of the items listed below.
1. RRIRNRPPRLPRPRPRPPEMPRP
2. RRIRCRPPRLPRPRPRPTCPPRP
3. RRIRQRPPRLPRPRPRPREFPRP

*A*
1: 0.0979; 2: -0.26; 3: 0.0416
